Assay: Pharmacokinetic study after unilateral transtympanic administration (plasma, inner ear, perilymph, brain)
Format: in vivo, female Sprague Dawley rats
Conditions: female, Sprague Dawley, other: transtympanic; rat, perilymph, 6% formulation 1.2 mg/animal unilateral transtympanic, Left side, 336 h, animals 1-3; read-out: Uptake of ACOU085 into the perilymph: ACOU085 inner ear concentration
quantity: concentration at 336 h (nM)

INSERT INTO assay_data (compound, quantity, measured_number) VALUES
  ('O=C(NCc1cccc(S(F)(F)(F)(F)F)c1)[C@H]1C[C@@H]2CC[C@H]1C2 [ACOU085]', 'concentration at 336 h', 4);

---

Experiment: Pharmacokinetic study after unilateral transtympanic administration (plasma, inner ear, perilymph, brain)
Type: in vivo, female Sprague Dawley rats
Settings: female, Sprague Dawley, rat, plasma, other: transtympanic, 1.2 mg/animal, 14 days after administration, read-out: plasma concentration (average)
quantity: concentration at 14 days (nM)

INSERT INTO measurements (molecule, quantity, measured_number) VALUES
  ('O=C(NCc1cccc(S(F)(F)(F)(F)F)c1)[C@H]1C[C@@H]2CC[C@H]1C2 [ACOU085]', 'concentration at 14 days', 4);

---

Test: Pharmacokinetic study after unilateral transtympanic administration (plasma, inner ear, perilymph, brain)
Type: in vivo, female Sprague Dawley rats
Settings: female, Sprague Dawley, rat, inner ear, left side, other: transtympanic, 1.2 mg/animal, 6% formulation 1.2 mg/animal unilateral transtympanic, Left side, 4 h, animals 1-3, read-out: ACOU085 inner ear concentration
quantity: concentration at 4 h (nM)

INSERT INTO results (compound, quantity, scale_unit, measured_number) VALUES
  ('O=C(NCc1cccc(S(F)(F)(F)(F)F)c1)[C@H]1C[C@@H]2CC[C@H]1C2 [ACOU085]', 'concentration at 4 h', 'nM', 55);

---

Assay: Pharmacokinetic study after unilateral transtympanic administration (plasma, inner ear, perilymph, brain)
Type: in vivo, female Sprague Dawley rats
Conditions: female, Sprague Dawley, rat, brain, other: transtympanic, 1.2 mg/animal, 14 days after administration, read-out: brain concentration (average)
quantity: concentration at 14 days

INSERT INTO assay_data (chemical_structure, quantity, result) VALUES
  ('O=C(NCc1cccc(S(F)(F)(F)(F)F)c1)[C@H]1C[C@@H]2CC[C@H]1C2', 'concentration at 14 days', '8 nM');

---

Experiment: Solubility in water
Type: physicochemical
Conditions: 24 °C, room temperature (22-26° C.)
# solubility per entry
quantity: solubility

INSERT INTO assay_data (compound, quantity, result) VALUES
  ('O=C(NCc1cccc(S(F)(F)(F)(F)F)c1)[C@H]1C[C@@H]2CC[C@H]1C2 (racemic) [Compound A]', 'solubility', '< 1000 µg/mL'),
  ('O=C(NCc1cccc(S(F)(F)(F)(F)F)c1)[C@H]1C[C@@H]2CC[C@H]1C2 [ACOU085]', 'solubility', '< 1000 µg/mL');

Reference source: patent US20260083669A1
